Data provenance is patent US20040175762A1.

Target: ABCG2 (Homo sapiens, UniProt Q9UNQ0, R482G)
Sequence (Q9UNQ0 whole entry R482G): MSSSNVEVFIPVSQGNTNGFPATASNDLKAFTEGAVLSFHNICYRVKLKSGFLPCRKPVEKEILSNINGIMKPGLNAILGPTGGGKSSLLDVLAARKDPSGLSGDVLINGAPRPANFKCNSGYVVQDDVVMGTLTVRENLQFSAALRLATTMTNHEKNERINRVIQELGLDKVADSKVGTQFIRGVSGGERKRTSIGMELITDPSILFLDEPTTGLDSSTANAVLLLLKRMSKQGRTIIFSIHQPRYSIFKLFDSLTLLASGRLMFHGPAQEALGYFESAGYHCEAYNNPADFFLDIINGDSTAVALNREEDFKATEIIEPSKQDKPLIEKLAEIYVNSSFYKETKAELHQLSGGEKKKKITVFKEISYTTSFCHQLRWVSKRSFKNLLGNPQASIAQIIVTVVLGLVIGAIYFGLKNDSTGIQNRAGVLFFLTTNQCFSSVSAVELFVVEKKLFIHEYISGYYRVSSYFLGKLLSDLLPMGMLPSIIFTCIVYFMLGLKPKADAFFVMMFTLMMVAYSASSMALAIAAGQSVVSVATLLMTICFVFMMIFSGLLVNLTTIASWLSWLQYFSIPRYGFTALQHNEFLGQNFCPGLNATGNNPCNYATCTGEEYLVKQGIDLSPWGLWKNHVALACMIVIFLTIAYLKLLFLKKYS
Test: in vitro
Measure: Km

query: Field request: Km | item: Nc1ncnc2c1ncn2[C@@H]1O[C@H](COP(=O)(O)OP(=O)([O-])OP(=O)([O-])O)[C@@H](O)[C@H]1O.[Mg+2] [MgATP]
result: ~300 µM
